assay: PK of five RC components in pituitrin-induced myocardial ischemia (MDG) rats after oral RC extract, HPLC-QQQ-MS/MS, DAS; type: in vivo, SD rats; conditions: SD, rat, in vivo, po, 2 g/kg
result_type: MRT inf (h)

[[record]]
molecule = "O=C(O)c1cc(O)c(O)c(O)c1 [Gallic Acid, gallic acid]"
assay_result = 13.6


====

assay: PK of five RC components in sham operation administration (SDG, normal) rats after oral RC extract, HPLC-QQQ-MS/MS, DAS; type: in vivo, SD rats; settings: rat; SDG rats, oral RC extract 2 g/kg, plasma, mean ± SD, n = 6; read-out: MRT(0−∞)
result_type: MRT inf (h)

[[record]]
item_smiles = "OCCc1ccc(O)cc1"
result_type = "MRT inf"
assay_result = 9.86


====

Recorded Cmax by entry
experiment: PK of five RC components in sham operation administration (SDG, normal) rats after oral RC extract, HPLC-QQQ-MS/MS, DAS; format: in vivo, SD rats; details: rat; SDG rats, oral RC extract 2 g/kg, plasma, mean ± SD, n = 6; read-out: Cmax
result_type: Cmax (ng/mL)

[[record]]
compound = "OCCc1ccc(O)cc1"
result_type = "Cmax"
assay_result = 132

[[record]]
compound = "OC[C@H]1O[C@@H](OCCc2ccc(O)cc2)[C@H](O)[C@@H](O)[C@@H]1O [Salidroside, salidroside]"
result_type = "Cmax"
assay_result = 1010


====

test: PK of five RC components in sham operation administration (SDG, normal) rats after oral RC extract, HPLC-QQQ-MS/MS, DAS; format: in vivo, SD rats; conditions: rat; SDG rats, oral RC extract 2 g/kg, plasma, mean ± SD, n = 6; read-out: AUC(0−∞)
result_type: AUC(0-inf) (ng·h/mL)

[[record]]
compound = "OC[C@H]1O[C@@H](OCCc2ccc(O)cc2)[C@H](O)[C@@H](O)[C@@H]1O [Salidroside, salidroside]"
assay_result = 8350

[[record]]
compound = "OCCc1ccc(O)cc1 [Tyrosol, tyrosol]"
assay_result = 729


====

experiment: PK of five RC components in sham operation administration (SDG, normal) rats after oral RC extract, HPLC-QQQ-MS/MS, DAS; format: in vivo, SD rats; conditions: rat, in vivo; SDG rats, oral RC extract 2 g/kg, plasma, mean ± SD, n = 6; read-out: MRT(0−)
result_type: MRT (h)

[[record]]
molecule = "O=c1c(O)c(-c2ccc(O)cc2)oc2cc(O)cc(O)c12 [Kaempferol, kaempferol]"
result_type = "MRT"
assay_result = 8.54


====

tested on: CK; assay: PK-PD sigmoid-Emax model, PD index CK in MDG rats; type: in vivo, SD rats; design: unit not given beside the values
Recorded Emax by entry
result_type: Emax

[[record]]
compound = "OCCc1ccc(O)cc1"
result_type = "Emax"
assay_result = 2289.882

[[record]]
compound = "OC[C@H]1O[C@@H](OCCc2ccc(O)cc2)[C@H](O)[C@@H](O)[C@@H]1O [Salidroside, salidroside]"
result_type = "Emax"
assay_result = 2288.494

[[record]]
compound = "O=C(O)c1cc(O)c(O)c(O)c1"
result_type = "Emax"
assay_result = 2290.745

[[record]]
compound = "O=c1c(O)c(-c2ccc(O)cc2)oc2cc(O)cc(O)c12"
result_type = "Emax"
assay_result = 2736.472

